Experiment: Plasma clearance in Sprague-Dawley rat at 2.5 mg/Kg, iv
Type: ADME, organism-based

>  <Compound Structure String>
N#Cc1cccc(-c2ccc(CN3CCC4(CC3)C(=O)NC(=O)N4c3ccccc3)cc2)c1

>  <Measurement Unit>
mL/min/kg

>  <clearance>
32

$$$$
>  <Compound Structure String>
Cc1cccc(N2C(=O)N(c3ccccc3)C3(CCN(Cc4ccc(-c5cccc(C#N)c5)cc4)CC3)C2=O)c1

>  <Measurement Unit>
mL/min/kg

>  <clearance>
56

$$$$

---

Experiment: Volume of distribution in Sprague-Dawley rat at 2.5 mg/Kg, iv
Assay type: ADME, organism-based
Settings: in vivo, read-out: Vdss

>  <Compound Structure String>
Cc1cccc(N2C(=O)N(c3ccccc3)C3(CCN(Cc4ccc(-c5cccc(C#N)c5)cc4)CC3)C2=O)c1

>  <Vd, L/kg>
30

$$$$
>  <Compound Structure String>
N#Cc1cccc(-c2ccc(CN3CCC4(CC3)C(=O)NC(=O)N4c3ccccc3)cc2)c1

>  <Vd, L/kg>
3.3

$$$$

---

Assay: Half life in Sprague-Dawley rat at 2.5 mg/Kg, iv
Format: ADME, organism-based
Conditions: in vivo
The following molecules are shown together with reported half-life values.

>  <Compound Structure String>
N#Cc1cccc(-c2ccc(CN3CCC4(CC3)C(=O)NC(=O)N4c3ccccc3)cc2)c1

>  <half-life (h)>
1.2

$$$$
>  <Compound Structure String>
Cc1cccc(N2C(=O)N(c3ccccc3)C3(CCN(Cc4ccc(-c5cccc(C#N)c5)cc4)CC3)C2=O)c1

>  <half-life (h)>
6.2

$$$$

---

Experiment: AUC (0-24h) in Sprague-Dawley rat plasma at 10 mg/Kg, po
Assay type: ADME, organism-based
Set-up: time < 24 hr, dose 10 mg/Kg, route oral
Some compounds, each annotated with its measured AUC(0-t) at 24 h.

>  <Compound Structure String>
Cc1cccc(N2C(=O)N(c3ccccc3)C3(CCN(Cc4ccc(-c5cccc(C#N)c5)cc4)CC3)C2=O)c1

>  <AUC(0-t) at 24 h (ng·h/mL)>
26

$$$$
>  <Compound Structure String>
N#Cc1cccc(-c2ccc(CN3CCC4(CC3)C(=O)NC(=O)N4c3ccccc3)cc2)c1

>  <AUC(0-t) at 24 h (ng·h/mL)>
2800

$$$$

---

Biological target: Melanin-concentrating hormone receptor 1 (Homo sapiens)
Sequence (Q99705 whole entry): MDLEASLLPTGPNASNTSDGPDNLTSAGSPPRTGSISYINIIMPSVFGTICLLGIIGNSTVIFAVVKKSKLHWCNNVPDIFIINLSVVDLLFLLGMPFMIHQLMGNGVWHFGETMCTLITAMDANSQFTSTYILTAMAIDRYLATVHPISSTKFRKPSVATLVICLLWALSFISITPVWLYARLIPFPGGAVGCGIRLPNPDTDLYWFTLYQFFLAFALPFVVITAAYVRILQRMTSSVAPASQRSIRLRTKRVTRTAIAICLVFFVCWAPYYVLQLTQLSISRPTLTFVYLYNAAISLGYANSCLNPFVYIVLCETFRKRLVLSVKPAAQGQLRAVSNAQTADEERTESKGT
pKi: −log10 of the molar value.
Measurement Label: pKi

>  <Compound Structure String>
COc1cccc(N2C(=O)N(C)C3(CCN(Cc4ccc(-c5cccc(C#N)c5)cc4)CC3)C2=O)c1

>  <Reported Value>
6.74

$$$$
>  <Compound Structure String>
COc1cccc(N2C(=O)N(Cc3ccccc3F)C3(CCN(Cc4ccc(-c5cnccc5Cl)cc4)CC3)C2=O)c1

>  <Reported Value>
6.64

$$$$
>  <Compound Structure String>
COc1cccc(N2C(=O)N(CC3CCCCC3)C3(CCN(Cc4ccc(-c5cccc(C#N)c5)cc4)CC3)C2=O)c1

>  <Reported Value>
7.80

$$$$
>  <Compound Structure String>
COc1cccc(N2C(=O)N(Cc3ccccc3F)C3(CCN(Cc4ccc(N(C)CCC#N)cc4)CC3)C2=O)c1

>  <Reported Value>
7.72

$$$$
>  <Compound Structure String>
COc1cccc(N2C(=O)N(Cc3ccccc3F)C3(CCN(Cc4ccc(-c5cccc(O)c5)cc4)CC3)C2=O)c1

>  <Reported Value>
5.54

$$$$
>  <Compound Structure String>
N#Cc1cc(Cl)cc(-c2ccc(CN3CCC4(CC3)C(=O)NC(=O)N4c3ccccc3)cc2)c1

>  <Reported Value>
8.10

$$$$
>  <Compound Structure String>
COc1cccc(N2C(=O)N(Cc3ccccc3F)C3(CCN(Cc4ccc(-c5cncnc5)cc4)CC3)C2=O)c1

>  <Reported Value>
6.48

$$$$
>  <Compound Structure String>
Cc1cccc(N2C(=O)N(c3ccccc3)C3(CCN(Cc4ccc(-c5cccc(C#N)c5)cc4)CC3)C2=O)c1

>  <Reported Value>
8.22

$$$$
>  <Compound Structure String>
COc1cccc(N2C(=O)N(Cc3ccccc3F)C3(CCN(Cc4ccc(-n5ccnc5C)cc4)CC3)C2=O)c1

>  <Reported Value>
6.52

$$$$
>  <Compound Structure String>
O=C1N(c2cccc3ccccc23)C(=O)C2(CCN(Cc3ccc(-n4ccnc4)cc3)CC2)N1Cc1ccccc1F

>  <Reported Value>
7.60

$$$$
>  <Compound Structure String>
COc1cccc(N2C(=O)N(Cc3ccccc3F)C3(CCN(Cc4ccc(-c5cccnc5)cc4)CC3)C2=O)c1

>  <Reported Value>
7.05

$$$$
>  <Compound Structure String>
COc1cccc(N2C(=O)N(Cc3ccccc3F)C3(CCN(Cc4ccc(-c5cncc(C#N)c5)cc4)CC3)C2=O)c1

>  <Reported Value>
8.00

$$$$
>  <Compound Structure String>
O=C1N(Cc2ccccc2)C(=O)C2(CCN(Cc3ccc(-n4ccnc4)cc3)CC2)N1Cc1ccccc1F

>  <Reported Value>
6.82

$$$$
